system: mice; assay: Acetic Acid Induced Mouse Writhing Test; format: in vivo, mouse (male CD-1); conditions: sc, 0.25 h; Analgesic Activity In Mouse Writhing Assay - Subcutaneous Inj.; acetic acid i.p. 15 min post drug; * = d-tartrate salt; read-out: ED50 (μmole/kg)

| Compound | Unit info | ED50 |
| --- | --- | --- |
| Oc1ccc2c3c1O[C@H]1[C@H]4OC[C@@]4(CCc4ccccc4)C[C@H]4[C@@H](C2)N(CC2CCC2)CC[C@@]341 [Compound 24Bc] | µmol/kg | 0.39 |
| COc1ccc2c3c1O[C@H]1[C@H]4OC[C@@]4(CCCCc4ccccc4)C[C@H]4[C@@H](C2)N(CC2CC2)CC[C@@]341 [Compound 23Pe] | µmol/kg | 0.61 |
| CN1CC[C@]23c4c5ccc(O)c4O[C@H]2[C@H]2OC[C@@]2(CCCCCc2ccccc2)C[C@H]3[C@H]1C5 [Compound 20f] | µmol/kg | 0.028 |
| CN1CC[C@]23c4c5ccc(O)c4O[C@H]2[C@H]2OC[C@@]2(CCCc2ccccc2)C[C@H]3[C@H]1C5 [Compound 20d] | µmol/kg | 0.019 |

* * *

tested on: mice; experiment: Acetic Acid Induced Mouse Writhing Test; assay type: in vivo, mouse (male CD-1); settings: sc, 0.25 h; Analgesic Activity In Mouse Writhing Assay - Subcutaneous Inj.; acetic acid i.p. 15 min post drug; * = d-tartrate salt; read-out: ED50 (μmole/kg)
Property measured: ED50 (µmol/kg)

| Compound | Observed measurement |
| --- | --- |
| Oc1ccc2c3c1O[C@H]1[C@H]4OC[C@@]4(CCCc4ccccc4)C[C@H]4[C@@H](C2)N(CC2CC2)CC[C@@]341 [Compound 24Pd] | 0.003 |
| COc1ccc2c3c1O[C@H]1[C@H]4OC[C@@]4(CCCCc4ccccc4)C[C@H]4[C@@H](C2)N(C)CC[C@@]341 [Compound 17e] | 0.005 |
| Oc1ccc2c3c1O[C@H]1[C@H]4OC[C@@]4(CCCCc4ccccc4)C[C@H]4[C@@H](C2)N(CC2CCC2)CC[C@@]341 [Compound 24Be] | 0.05 |

* * *

system: mice; assay: Acetic Acid Induced Mouse Writhing Test; format: in vivo, mouse (male CD-1); settings: sc, 0.25 h; Analgesic Activity In Mouse Writhing Assay - Subcutaneous Inj.; acetic acid i.p. 15 min post drug; * = d-tartrate salt; read-out: ED50 (μmole/kg)
The following compounds are listed with their measured ED50 values.

| Compound | Sign | ED50 [µmol/kg] |
| --- | --- | --- |
| COc1ccc2c3c1O[C@H]1[C@H]4OC[C@@]4(CCCCc4ccccc4)C[C@H]4[C@@H](C2)N(CC2CCC2)CC[C@@]341 [Compound 23Be] | = | 2.8 |
| Oc1ccc2c3c1O[C@H]1[C@H]4OC[C@@]4(CCc4ccccc4)C[C@H]4[C@@H](C2)N(CC2CC2)CC[C@@]341 [Compound 24Pc] | = | 0.04 |
| COc1ccc2c3c1O[C@H]1[C@H]4OC[C@@]4(CCCc4ccccc4)C[C@H]4[C@@H](C2)N(CC2CC2)CC[C@@]341 [Compound 23Pd] | = | 1.07 |
| COc1ccc2c3c1O[C@H]1[C@H]4OC[C@@]4(CCCCCc4ccccc4)C[C@H]4[C@@H](C2)N(C)CC[C@@]341 [Compound 17f] | = | 1.3 |
| COc1ccc2c3c1O[C@H]1[C@H]4OC[C@@]4(CCc4ccccc4)C[C@H]4[C@@H](C2)N(C)CC[C@@]341 [Compound 17c] | = | 0.9 |
| COc1ccc2c3c1O[C@H]1[C@H]4OC[C@@]4(CCCc4ccccc4)C[C@H]4[C@@H](C2)N(CC2CCC2)CC[C@@]341 [Compound 23Bd] | = | 4.4 |
| Oc1ccc2c3c1O[C@H]1[C@H]4OC[C@@]4(CCCCc4ccccc4)C[C@H]4[C@@H](C2)N(CC2CC2)CC[C@@]341 [Compound 24Pe] | = | 0.015 |
| COc1ccc2c3c1O[C@H]1[C@H]4OC[C@@]4(CCCc4ccccc4)C[C@H]4[C@@H](C2)N(C)CC[C@@]341 [Compound 17d] | = | 0.046 |
| Oc1ccc2c3c1O[C@H]1[C@H]4OC[C@@]4(CCCc4ccccc4)C[C@H]4[C@@H](C2)N(CC2CCC2)CC[C@@]341 [Compound 24Bd] | = | 0.06 |
| COc1ccc2c3c1O[C@H]1[C@H]4OC[C@@]4(CCc4ccccc4)C[C@H]4[C@@H](C2)N(CC2CCC2)CC[C@@]341 [Compound 23Bc] | > | 16 |
| CN1CC[C@]23c4c5ccc(O)c4O[C@H]2[C@H]2OC[C@@]2(CCCCc2ccccc2)C[C@H]3[C@H]1C5 [Compound 20e] | = | 0.024 |
| CN1CC[C@]23c4c5ccc(O)c4O[C@H]2[C@H]2OC[C@@]2(CCc2ccccc2)C[C@H]3[C@H]1C5 [Compound 20c] | = | 0.048 |
| COc1ccc2c3c1O[C@H]1[C@H]4OC[C@@]4(CCc4ccccc4)C[C@H]4[C@@H](C2)N(CC2CC2)CC[C@@]341 [Compound 23Pc] | = | 0.57 |
